- Study target: hSTING-WT (Homo sapiens (Human), UniProt Q86WV6, H232R)
- Sequence (Q86WV6 140-379 H232R): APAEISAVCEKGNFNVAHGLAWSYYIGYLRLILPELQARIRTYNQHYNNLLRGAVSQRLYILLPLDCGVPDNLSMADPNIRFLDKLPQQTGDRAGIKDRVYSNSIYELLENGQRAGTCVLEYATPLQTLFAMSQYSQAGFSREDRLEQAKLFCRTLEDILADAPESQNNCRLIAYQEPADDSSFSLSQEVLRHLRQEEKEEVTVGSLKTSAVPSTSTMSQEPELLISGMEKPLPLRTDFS
- Assay summary: Radiometric filtration binding competition assay, hSTING-WT
Measured quantity: IC50

INSERT INTO results (smiles_record, measured_quantity, recorded_measurement) VALUES
  ('CCN(C)c1c(Cl)ccc2c(=O)c3ccc(C)cc3n(CC(=O)O)c12', 'IC50', '20 to 100 µM'),
  ('COc1c(Cl)ccc2c(=O)c3ccc(Nc4ccc(Cl)cc4)cc3n(CC(=O)O)c12', 'IC50', '20 to 100 µM'),
  ('CCCOc1c(Cl)ccc2c(=O)c3ccccc3n(CC(=O)O)c12', 'IC50', '> 300 µM'),
  ('CCc1ccc2c(=O)c3ccc(Cl)c(OC)c3n(CC(=O)O)c2c1', 'IC50', '20 to 100 µM'),
  ('O=C(O)Cn1c2cc(-c3nccs3)ccc2c(=O)c2ccc(Cl)c(Cl)c21', 'IC50', '100 to 300 µM'),
  ('[N-]=[N+]=NCc1c(Cl)ccc2c(=O)c3ccccc3n(CC(=O)O)c12', 'IC50', '> 300 µM'),
  ('O=C(O)Cn1c2ccccc2c(=O)c2ccc(Br)c(Br)c21', 'IC50', '> 300 µM'),
  ('Cc1ccc(-c2ccc3c(=O)c4ccc(Cl)c(Cl)c4n(CC(=O)O)c3c2)cc1F', 'IC50', '20 to 100 µM'),
  ('O=C(O)Cn1c2ccccc2c(=O)c2ccc(Cl)c(OCCCO)c21', 'IC50', '> 300 µM');
